Attribution: patent US12642270B2

method.description: Log P by HPLC on reversed phase columns (EEC directive 79/831 Annex V.A8)
Type: physicochemical
test.parameters: method [a]: LC-UV, acidic range, 0.1% formic acid in water and acetonitrile
assay.endpoint: LogP

Some solved cases for reference:
Ask: Requested read-out: LogP. Entry: O=C(N[C@H]1CCCNC1=O)c1sc(Br)c(Br)c1F [I.0950]
Reply: 2.05^[a]

Ask: Field request: LogP | item: N#Cc1c(Br)sc(C(=O)O)c1Cl [II.001]
Reply: 1.66^[a]

Others:
Ask: Which measured LogP value corresponds to O=C(NC1CCCCNC1=O)c1sc(Br)c(Br)c1F (stereo not shown) [I.0951] ?
Reply: 2.68^[a]

Ask: Which LogP reading was recorded for the compound O=C(NC1CCOC1=O)c1sc(Cl)c(Cl)c1Br (stereo not shown) [I.0839] ?
Reply: 2.63^[a]

----------
method.description: Log P by HPLC on reversed phase columns (EEC directive 79/831 Annex V.A8)
Format: physicochemical
test.parameters: method marked [a]
assay.endpoint: LogP

Guide cases for LogP, answers given:
Ask: Please give the measured LogP for this compound: COC(=O)C1(NC(=S)c2sc(Cl)c(Br)c2C)CC1
Reply: 3.71^[a]

Ask: # lookup: LogP of CCOC(=O)C(NC(=O)c1sc(F)c(Br)c1Br)C(C)C (centres unmarked)
Reply: 4.48^[a]

Ask: # get_value(readout='LogP', item= CCOC(=O)C1(NC(=O)c2cc(F)c(Cl)s2)CC1 )
Reply: 2.49^[a]

Ask: Sample COC(=O)C1(NC(=O)c2cc(Br)c(C(F)(F)F)s2)CCC1 — what was its LogP?
Reply: 3.33^[a]

Further cases:
Ask: Need LogP, item CCOC(=O)C1(NC(=O)c2sc(Cl)c(C#N)c2Cl)CC1
Reply: 2.69^[a]

----------
method.description: Log P by HPLC on reversed phase columns (EEC directive 79/831 Annex V.A8)
Format: physicochemical
test.parameters: method [a]; compounds of formula (I), Table 1.1
assay.endpoint: LogP

Ask: Reported LogP, compound N#CC1(NC(=O)c2sc(Br)c(Br)c2F)CC1 : ____
Reply: 2.64^[a]

Ask: What measured LogP goes with CCOC(=O)C1(NC(=O)c2sc(I)c(Br)c2C)CCC1 ?
Reply: 3.71^[a]

Ask: If you can, please state the reported LogP value of CCOC(=O)C(Cc1c[nH]c2ccccc12)NC(=O)c1sc(Cl)c(Br)c1C (stereo not shown) .
Reply: 4.15^[a]

Ask: Fill in: LogP of CCOC(=O)CCNC(=O)c1sc(C#N)c(Br)c1C is ___
Reply: 2.52^[a]

New cases:
Ask: Tell me the measured LogP of N#CC(Cc1ccccc1)NC(=O)c1sc(Br)c(Br)c1F (stereo not shown) , please.
Reply: 3.81^[a]

Ask: Suppose we examine the compound CCSC(=O)C(CC(C)C)NC(=O)c1sc(Br)c(Br)c1F (racemic) ; what LogP value has been reported?
Reply: 5.05^[a]

Ask: Query (compound): CCOC(=O)C(CC(F)(F)F)NC(=O)c1sc(Br)c(Br)c1F (stereo not shown) ; field requested: LogP
Reply: 3.88^[a]

Ask: Which LogP value is on record for CCOC(=O)CCNC(=O)c1sc(Br)c(I)c1C ?
Reply: 3.23^[a]

Ask: Returns the measured LogP for the input compound. Input: Cc1c(C(=O)NC2(C#N)CCC2)sc(Cl)c1Br
Reply: 4.53^[a]

Ask: Quick check: LogP of COC(=O)C1(NC(=O)c2sc(Br)c(Br)c2F)CCC(F)(F)CC1 ?
Reply: 3.74^[a]
